All figures here come from patent EP0359454B1.

Listed below: IC50 values for each entry.
- Tested on: L1210 leukemia cells
- assay procedure: In vitro L1210 cell growth inhibition
- Assay type: cell-based, murine
- reported conditions: Mus musculus, concentration of drug which inhibits cell growth 50%, read-out: ID50 (the source's name)
Respond with the bare value in ng/mL.

Would you please look over these solved cases?
smiles string: Cc1c[nH]c2c(O)cc3c(c12)[C@H](CCl)CN3C(=O)c1cc2cc(NC(=O)Nc3ccc4[nH]c(C(=O)N5C[C@@H](CCl)c6c5cc(O)c5[nH]cc(C)c65)cc4c3)ccc2[nH]1
IC50 [ng/mL]: 0.001
--
smiles string: Cc1c[nH]c2c(O)cc3c(c12)[C@H](CCl)CN3C(=O)c1cc2cc(NC(=O)C(=O)Nc3ccc4[nH]c(C(=O)N5C[C@H](CCl)c6c5cc(O)c5[nH]cc(C)c65)cc4c3)ccc2[nH]1
IC50 [ng/mL]: 0.009
--
smiles string: Cc1c[nH]c2c(O)cc3c(c12)[C@H](CCl)CN3C(=O)c1cc2cc(NC(=O)CC(=O)Nc3ccc4[nH]c(C(=O)N5C[C@@H](CCl)c6c5cc(O)c5[nH]cc(C)c65)cc4c3)ccc2[nH]1
IC50 [ng/mL]: 0.006
--
smiles string: Cc1c[nH]c2c(O)cc3c(c12)[C@H](CCl)CN3C(=O)c1cc2cc(NC(=O)c3ccc(C(=O)Nc4ccc5[nH]c(C(=O)N6C[C@@H](CCl)c7c6cc(O)c6[nH]cc(C)c76)cc5c4)[nH]3)ccc2[nH]1
IC50 [ng/mL]: 0.004

Would you kindly look at the next entry?
// IC50 lookup, compound = Cc1c[nH]c2c(O)cc3c(c12)[C@H](CCl)CN3C(=O)c1cc2c3c(ccc2[nH]1)N(C(=O)N1CCc2c1ccc1[nH]c(C(=O)N4C[C@@H](CCl)c5c4cc(O)c4[nH]cc(C)c54)cc21)CC3 , result: 0.002
